- experimentNotes: Intrinsic clearance in mouse liver microsomes assessed per mg protein at 1 uM measured up to 60 mins in presence or absence of NADPH by LC-MS/MS analysis
- Format: ADME, Microsome
- conditionSet: microsomes, 1 h, 1 µM

| entrySmiles | resultUnits | CLint |
| --- | --- | --- |
| Cn1nc(-c2ccn(C)c(=O)c2)nc2c(=O)n(C)c(=O)nc1-2 | µL/min/mg | 71.8 |

====

Readings of Papp A→B at 1 h, 10 µM for the listed compounds
- Tested on: P-gp
- experimentNotes: Permeability across apical to basolateral side in MDCK2-MDR1 cells at 10 uM incubated for 60 mins in presence 2 uM P-gp inhibitor elacridar by LC-MS/MS analysis
- Type: ADME, cell-based, Canis lupus familiaris
- conditionSet: dog, MDCK-MDR1, with elacridar 2 uM; read-out: permeability
property: Papp A→B at 1 h, 10 µM (×10⁻⁶ cm/s)

| entrySmiles | experimentalSystem | reportedMeasurement |
| --- | --- | --- |
| Cn1nc(-c2ccc(F)cc2)nc2c(=O)n(C)c(=O)nc1-2 | P-gp | 30.6 |
| Cn1nc(-c2ccncc2)nc2c(=O)n(C)c(=O)nc1-2 | P-gp | 13.4 |
| CN(C)c1ccccc1-c1nc2c(=O)n(C)c(=O)nc-2n(C)n1 | P-gp | 18 |
| Cn1nc(-c2ccccc2)nc2n(C)c(=O)nc1-2 | P-gp | 40.6 |

====

- experimentalSystem: UniProtKB Q9H3R0
- Sequence (Q9H3R0 whole entry): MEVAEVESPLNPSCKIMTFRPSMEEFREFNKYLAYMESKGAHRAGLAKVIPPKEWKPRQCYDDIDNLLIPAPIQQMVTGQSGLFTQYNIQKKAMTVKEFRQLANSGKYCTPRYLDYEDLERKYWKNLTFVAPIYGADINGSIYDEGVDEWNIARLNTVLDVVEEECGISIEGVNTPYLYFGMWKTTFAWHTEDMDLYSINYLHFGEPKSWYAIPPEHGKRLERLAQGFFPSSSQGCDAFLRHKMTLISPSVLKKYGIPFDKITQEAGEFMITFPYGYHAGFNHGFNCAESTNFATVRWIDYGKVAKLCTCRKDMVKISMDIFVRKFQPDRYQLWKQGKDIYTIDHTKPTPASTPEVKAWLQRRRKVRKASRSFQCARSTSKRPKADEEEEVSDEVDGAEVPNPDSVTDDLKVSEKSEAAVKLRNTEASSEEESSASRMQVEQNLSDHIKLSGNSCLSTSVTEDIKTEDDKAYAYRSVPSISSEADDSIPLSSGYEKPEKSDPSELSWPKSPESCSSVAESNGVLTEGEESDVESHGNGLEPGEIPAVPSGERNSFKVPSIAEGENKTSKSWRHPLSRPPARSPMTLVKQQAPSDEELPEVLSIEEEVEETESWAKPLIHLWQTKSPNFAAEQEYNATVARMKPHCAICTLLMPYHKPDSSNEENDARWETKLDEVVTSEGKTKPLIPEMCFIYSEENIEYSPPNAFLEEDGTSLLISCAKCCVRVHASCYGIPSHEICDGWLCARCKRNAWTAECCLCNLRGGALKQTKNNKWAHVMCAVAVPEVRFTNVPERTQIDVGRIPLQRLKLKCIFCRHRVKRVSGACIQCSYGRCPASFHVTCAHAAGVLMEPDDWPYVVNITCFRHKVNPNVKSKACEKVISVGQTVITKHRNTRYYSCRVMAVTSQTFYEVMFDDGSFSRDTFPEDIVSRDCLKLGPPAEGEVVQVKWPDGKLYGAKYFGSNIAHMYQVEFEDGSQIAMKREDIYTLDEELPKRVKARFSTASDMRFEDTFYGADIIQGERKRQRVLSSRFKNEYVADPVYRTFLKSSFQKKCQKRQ
- experimentNotes: Inhibition of KDM4C (unknown origin) using methylated H3 peptide as substrate by chemiluminescence assay
- conditionSet: read-out: IC50
property: IC50

| entrySmiles | experimentalSystem | property | reportedMeasurement |
| --- | --- | --- | --- |
| Cn1nc(-c2ccc(S(N)(=O)=O)cc2)nc2c(=O)n(C)c(=O)nc1-2 | UniProtKB Q9H3R0 | IC50 | 42 nM |
| Cn1nc(-c2ccc(O)cc2)nc2c(=O)n(C)c(=O)nc1-2 | UniProtKB Q9H3R0 | IC50 | 242 nM |
| Cn1nc(-c2ccccc2)nc2c(=O)n(C)c(=O)nc1-2 | UniProtKB Q9H3R0 | IC50 | 130 nM |
| Cn1c(=O)[nH]c2ccc(-c3ccccc3)cc2c1=O | UniProtKB Q9H3R0 | IC50 | > 10000 nM |
